Assay: Phase 1 first-in-human study (NCT04178902): pharmacokinetics
Format: in vivo
Conditions: human, in vivo, 0.53 mg/kg, Cycle 1 Day 15, DOSE_MGKG 0.53, cohort 3, PKTIME 8.5; read-out: CONC_NGML

{"columns": ["compound", "concentration at […], ng/mL"],
 "data": [
  ["Cc1c(Cl)c2c(Cl)c(C)c1-c1c(-c3ccc(F)cc3)sc3ncnc(c13)O[C@@H](C(=O)O)Cc1cc(ccc1OCc1ccnc(-c3ccc(OC[C@H]4COCCO4)cc3)n1)OC[C@@H](CN1CCN(C)CC1)O2", 0]
]}

* * *

Molecular target: monkey MCL1 (Macaca mulatta)
Construct: rhesus monkey (iso4, NM_001 1089 3 7, AA 171-327)
Sequence (F7HUE9 171-327): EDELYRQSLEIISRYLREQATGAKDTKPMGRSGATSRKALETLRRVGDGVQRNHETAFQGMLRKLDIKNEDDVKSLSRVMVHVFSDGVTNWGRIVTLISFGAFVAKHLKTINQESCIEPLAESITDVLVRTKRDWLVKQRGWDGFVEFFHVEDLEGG
Experiment: TR-FRET binding assay, MCL-1 orthologs
pKi: −log10 of the molar value.

{"columns": ["compound", "pKi"],
 "data": [
  ["Cc1c(Cl)c2c(Cl)c(C)c1-c1c(-c3ccc(F)cc3)sc3ncnc(c13)O[C@@H](C(=O)O)Cc1cc(ccc1OCc1ccnc(-c3ccc(OC[C@H]4COCCO4)cc3)n1)OC[C@@H](CN1CCN(C)CC1)O2", "> 10.00"]
]}

* * *

Molecular target: off-target receptors, ion channels, and transporters
Test: Off-target profiling (Supplementary Data 1)
Conditions: read-out: CHO Hamster - EC50; Bioprofiling 6pt Ag

{"columns": ["compound", "EC50"],
 "data": [
  ["Cc1c(Cl)c2c(Cl)c(C)c1-c1c(-c3ccc(F)cc3)sc3ncnc(c13)O[C@@H](C(=O)O)Cc1cc(ccc1OCc1ccnc(-c3ccc(OC[C@H]4COCCO4)cc3)n1)OC[C@@H](CN1CCN(C)CC1)O2 [ABBV-467]", "> 10 µM"]
]}

* * *

Experiment: Phase 1 first-in-human study (NCT04178902): pharmacokinetics
Format: in vivo
Conditions: human, in vivo, 0.08 mg/kg, Cycle 1 Day 1, DOSE_MGKG 0.08, cohort 1, PKTIME 0.5; read-out: CONC_NGML
property-label: concentration at 0.5 h (ng/mL)

{"columns": ["compound", "units-label", "experimental-value"],
 "data": [
  ["Cc1c(Cl)c2c(Cl)c(C)c1-c1c(-c3ccc(F)cc3)sc3ncnc(c13)O[C@@H](C(=O)O)Cc1cc(ccc1OCc1ccnc(-c3ccc(OC[C@H]4COCCO4)cc3)n1)OC[C@@H](CN1CCN(C)CC1)O2 [ABBV-467]", "ng/mL", 252]
]}

* * *

Assay: Phase 1 first-in-human study (NCT04178902): pharmacokinetics
Format: in vivo
Details: human, in vivo, 0.265 mg/kg, Cycle 1 Day 1, DOSE_MGKG 0.265, cohort 3, PKTIME 24.5; read-out: CONC_NGML

{"columns": ["molecule", "concentration at […], µg/mL"],
 "data": [
  ["Cc1c(Cl)c2c(Cl)c(C)c1-c1c(-c3ccc(F)cc3)sc3ncnc(c13)O[C@@H](C(=O)O)Cc1cc(ccc1OCc1ccnc(-c3ccc(OC[C@H]4COCCO4)cc3)n1)OC[C@@H](CN1CCN(C)CC1)O2 [ABBV-467]", 0]
]}

* * *

Assay: Phase 1 first-in-human study (NCT04178902): pharmacokinetics
Assay type: in vivo
Settings: human, in vivo, 0.53 mg/kg, Cycle 1 Day 15, DOSE_MGKG 0.53, cohort 3, PKTIME 2.5; read-out: CONC_NGML
property-label: concentration at […] (ng/mL)

{"columns": ["compound", "property-label", "experimental-value"],
 "data": [
  ["Cc1c(Cl)c2c(Cl)c(C)c1-c1c(-c3ccc(F)cc3)sc3ncnc(c13)O[C@@H](C(=O)O)Cc1cc(ccc1OCc1ccnc(-c3ccc(OC[C@H]4COCCO4)cc3)n1)OC[C@@H](CN1CCN(C)CC1)O2", "concentration at […]", 27.3]
]}

Ref: paper PMC10600239
